Kindly state composite z-score for each of the entries shown.
Study target: Pro-neuregulin-1, membrane-bound isoform (Homo sapiens)
Protocol summary: small molecules binding neuregulin-1 protein – biochemical, small-molecule microarray, fluorescence 635/667, psychiatric disease protein project, primary screen (AID 1075);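 further: score combines 667 nm spot fluorescence with signal to noise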
Condition summary: NRG1 binding, 635 nm fluorescence, higher = more signal
One number for each entry.

The following molecules have reported results that may help.
molecule=CCCNC(=O)[C@@]1(Sc2ccc(C)cc2)CC(=O)N(Cc2ccccc2)[C@@H]1c1ccc(CO)cc1I study_target="Pro-neuregulin-1, membrane-bound isoform (Homo sapiens)" measured_quantity="composite z-score" quantitative_readout=0.848
molecule="C=CC[C@]1(C(=O)NCC(O)CO)N=C(c2ccc(OCCCO)cc2)O[C@H]1c1ccccc1N=[N+]=[N-] (some centres undefined)" study_target="Pro-neuregulin-1, membrane-bound isoform (Homo sapiens)" measured_quantity="composite z-score" quantitative_readout=1.8
molecule=COC(=O)C(CC#Cc1ccc2c(c1)[C@]1(C(=O)N2)[C@H](c2ccc(O)cc2)N2[C@H](c3ccccc3)[C@H](c3ccccc3)OC(=O)[C@H]2[C@@H]1C(N)=O)C(=O)OC study_target="Pro-neuregulin-1, membrane-bound isoform (Homo sapiens)" measured_quantity="composite z-score" quantitative_readout=-0.605

Let us examine a further case.
Fill in the blank: the reported composite z-score of OCCCC1=CC(c2cccs2)N(Cc2cccc(OC(F)(F)F)c2)CC1 (centres undefined) is ____. -0.222
